target: T1, mfGCGR-hFc (cynomolgus monkey (Macaca fascicularis)); assay: SPR Biacore T100, 25C, mAb captured, antigen flowed
T1 construct: also called mfGCGR-N-terminal hFc
T1 sequence (chain, as listed by the source limits assumed): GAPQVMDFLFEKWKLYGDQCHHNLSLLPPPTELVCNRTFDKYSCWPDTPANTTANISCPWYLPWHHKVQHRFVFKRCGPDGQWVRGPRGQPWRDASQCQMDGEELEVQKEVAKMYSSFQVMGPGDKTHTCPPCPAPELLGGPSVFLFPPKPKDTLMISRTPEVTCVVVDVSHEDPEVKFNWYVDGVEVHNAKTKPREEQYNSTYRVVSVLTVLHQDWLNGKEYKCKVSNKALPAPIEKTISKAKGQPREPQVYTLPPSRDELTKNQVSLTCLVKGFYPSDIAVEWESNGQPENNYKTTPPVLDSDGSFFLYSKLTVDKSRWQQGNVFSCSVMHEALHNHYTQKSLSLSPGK
Assign koff to each entry below.
Numbers only, in s⁻¹.

Binder	koff [s⁻¹]
H4H1321P (antibody, V domains shown, Fully human anti-GCGR antibody; the controls are called isotype-matched hIgG4) VH: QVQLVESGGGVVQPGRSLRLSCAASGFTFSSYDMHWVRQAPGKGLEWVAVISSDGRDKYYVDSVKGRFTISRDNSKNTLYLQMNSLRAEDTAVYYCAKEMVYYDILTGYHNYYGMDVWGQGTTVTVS VL: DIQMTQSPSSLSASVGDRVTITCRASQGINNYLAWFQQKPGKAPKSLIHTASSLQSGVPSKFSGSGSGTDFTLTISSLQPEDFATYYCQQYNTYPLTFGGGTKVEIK	4.18e-05
H4H1339P (antibody, V domains shown, Fully human anti-GCGR antibody; the controls are called isotype-matched hIgG4) VH: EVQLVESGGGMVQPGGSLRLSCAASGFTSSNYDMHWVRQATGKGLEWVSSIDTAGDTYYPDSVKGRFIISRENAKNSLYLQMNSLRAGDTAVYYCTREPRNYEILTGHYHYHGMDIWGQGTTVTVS VL: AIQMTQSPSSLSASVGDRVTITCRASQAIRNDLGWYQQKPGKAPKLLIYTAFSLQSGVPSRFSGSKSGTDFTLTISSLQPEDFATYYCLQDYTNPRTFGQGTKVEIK	2.28e-05

Now for the binder whose koff we want.
Prompt line: Look up koff: H4H1331P (antibody, V domains shown, Fully human anti-GCGR antibody; the controls are called isotype-matched hIgG4) VH: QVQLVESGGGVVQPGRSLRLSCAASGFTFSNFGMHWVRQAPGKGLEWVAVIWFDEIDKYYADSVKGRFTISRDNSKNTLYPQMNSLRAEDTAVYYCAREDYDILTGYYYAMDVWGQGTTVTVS VL: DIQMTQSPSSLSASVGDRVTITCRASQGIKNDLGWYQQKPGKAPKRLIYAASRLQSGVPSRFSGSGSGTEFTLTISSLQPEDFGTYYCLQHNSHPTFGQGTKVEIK
Response line: 8.12e-06
